# inhibition listing for each entry below
molecular target: Solute carrier family 2, facilitated glucose transporter member 1 (Homo sapiens) (UniProt P11166); assay: ST_JUDE_LEISH: Cytotoxicity at 2uM final concentration against transgenic Leishmania Mexicana promastigotes LmGLUT1 that are glucose transport deficient and complemented with the human glucose transporter GLUT1. Activity is measured by DNA content using SYBR green in vitro; format: functional
Sequence (P11166 whole entry): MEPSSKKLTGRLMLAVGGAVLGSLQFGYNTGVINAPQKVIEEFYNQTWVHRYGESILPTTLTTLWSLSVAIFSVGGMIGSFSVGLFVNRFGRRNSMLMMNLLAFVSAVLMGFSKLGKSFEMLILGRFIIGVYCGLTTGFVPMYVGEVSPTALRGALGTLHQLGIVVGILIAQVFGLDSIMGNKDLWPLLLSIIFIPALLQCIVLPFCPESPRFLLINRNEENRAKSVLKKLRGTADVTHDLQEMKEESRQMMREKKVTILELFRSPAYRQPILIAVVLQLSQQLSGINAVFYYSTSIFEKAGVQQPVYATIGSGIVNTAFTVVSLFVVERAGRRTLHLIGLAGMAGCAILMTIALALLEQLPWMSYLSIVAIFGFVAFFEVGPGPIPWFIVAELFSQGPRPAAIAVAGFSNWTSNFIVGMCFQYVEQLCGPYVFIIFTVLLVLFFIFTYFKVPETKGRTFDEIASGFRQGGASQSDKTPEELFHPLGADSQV
valueType: inhibition (%)

> print(dat)
                                    compound  observedvalue
 1  Oc1ccc2nc(NCCCc3ccccc3)nc(NCCCc3ccccc3)c2c1           28.4
 2  COc1ccccc1/C=C/C(=O)NCCC1CCN(CCCCCNC(=O)/C=C/c2ccc(Cl)c(Cl)c2)CC1           16.2
 3  CN(C)c1ccc(-c2csc(C(=O)NCC3CCN(Cc4cccc(C(F)(F)F)c4)C3)c2)cc1 (centres undefined)           7.22
 4  Nc1nc(N)c2c(ccc3[nH]c(-c4ccccc4Cl)nc32)n1           77.1
 5  Cn1c2c(c3ccccc31)CN(CCC1(c3ccc(Cl)c(Cl)c3)CN(C(=O)c3ccccc3)CCO1)CC2 (centres undefined)           2.15
 6  NCC1CCCN1Cc1cccc(-c2ccc(-c3nc4cc(C(F)(F)F)ccc4[nH]3)cc2)c1 (centres undefined)           0.06
 7         N#Cc1ccc(C=NNc2nc3ccccc3[nH]2)cc1           3.61
 8   CN(C)Cc1ccc(CNC2CCN(Cc3ccccc3Cl)CC2)cc1           18.4
 9  Cc1ccccc1CN1CCCN(Cc2ccc(C(=O)Nc3ccc(Cl)cc3)cc2)CC1            7.5
10  Cc1cc(C(=O)Nc2ccc(C)c(-c3nc(N(C(=O)c4ccc(F)c(C)c4)C4CCNCC4)nc4c3ccc(=O)n4-c3c(F)cccc3F)c2)ccc1F           1.66
11  CCc1ccc(CN2CCC(NC(=O)c3ccc(-c4ccccc4F)s3)CC2)cc1           0.37
12  Cc1ccccc1C1CCN(c2ccc(C(=O)Nc3ccccc3)cn2)CC1          -0.55
13             COc1c(I)cc(Cc2cnc(N)nc2N)cc1I           6.68
14  CCN(Cc1ccc(-c2ccc(C(F)(F)F)cc2)cc1)C(=O)Cn1c(SCc2cccc(F)c2F)cc(=O)c2cc(CN3CCCCC3)ccc21           0.46
15  COc1ccc(N2CCN(CCc3ccc(NC(=O)c4ccc([N+](=O)[O-])cc4)cc3)CC2)c(OC)c1            9.1
16       COc1cccc(C=Cc2nc(=O)c3ccccc3o2)c1OC           4.18
17  COc1cc2c(cc1OC)CN(CCc1ccc(NC(=O)c3cc4cc(OC(F)(F)F)ccc4[nH]3)cc1)CC2           3.34
18  Nc1cccc(CNCc2cccc(-c3ccc(-c4nc5ccccc5[nH]4)cc3)c2)c1          -1.29
19  O=C(Nc1ccc2c(c1)CCN2C1CCN(Cc2ccc(F)cc2Cl)C1)c1ccco1 (centres undefined)           1.66

----------
biological target: Hexose transporter 1 (Plasmodium falciparum); assay: ST_JUDE_LEISH: Cytotoxicity at 2uM final concentration against transgenic Leishmania Mexicana promastigotes LmPfHT that are glucose transport deficient and complemented with the Plasmodium falciparum hexose transporter. Activity is measured by DNA content using SYBR green in vitro; assay type: functional
# maps each entry to its inhibition
valueType: inhibition (%)

> print(dat)
                                   compound  readoutunits  observedvalue
1  N#Cc1ccc2c(c1)CCN(CCC1CCC(NC(=O)c3cc4ccccc4[nH]3)CC1)CC2 (stereo not given)             %           5.71
2  O=c1c(NCCCN(Cc2ccc(F)cc2)c2ccccn2)c(NCc2cccnc2)c1=O             %           1.81
3  O=C(/C=C/c1ccc(Cl)c(Cl)c1)NCCCCCN1CC[C@H](NC(=O)c2sc3ccccc3c2Cl)C1             %           3.45
4  CC1(C)NC(N)=NC(=N)N1OCCOc1ccc(Cc2ccccc2)cc1             %           0.91
5  CCCNCc1ccc(-c2ccc(CN(Cc3ccc4c(c3)OCO4)C(=O)[C@H]3CCCO3)cc2)nc1             %           10.6

Entry source: ChEMBL document CHEMBL3433997
